Assay: Stability of the ginsenosides in rat plasma (QC samples)
Type: in vitro ADME
Details: rat plasma, middle QC (142.4 Rb1, 62.5 Rb2, 48.8 Rd, 98.6 Re ng/mL); 1 month at −80°C
result-type: Re (%) Short term
Answer in %, number only, no unit symbol.

Observe how each entry below is paired with its result.
[ask] Consider the molecule CC(C)=CCC[C@](C)(O[C@@H]1O[C@H](CO)[C@@H](O)[C@H](O)[C@H]1O)[C@H]1CC[C@]2(C)[C@@H]1[C@H](O)C[C@@H]1[C@@]3(C)CC[C@H](O)C(C)(C)[C@@H]3[C@@H](O[C@@H]3O[C@H](CO)[C@@H](O)[C@H](O)[C@H]3O[C@@H]3O[C@@H](C)[C@H](O)[C@@H](O)[C@H]3O)C[C@]12C and give its measured Re (%) Short term.
[reply] 12.11

[ask] Do the same for CC(C)=CCC[C@](C)(O[C@@H]1O[C@H](CO[C@@H]2OC[C@H](O)[C@H](O)[C@H]2O)[C@@H](O)[C@H](O)[C@H]1O)[C@H]1CC[C@]2(C)[C@@H]1[C@H](O)C[C@@H]1[C@@]3(C)CC[C@H](O[C@@H]4O[C@H](CO)[C@@H](O)[C@H](O)[C@H]4O[C@@H]4O[C@H](CO)[C@@H](O)[C@H](O)[C@H]4O)C(C)(C)[C@@H]3CC[C@]12C please
[reply] −2.12

[ask] Proceed to CC(C)=CCC[C@](C)(O[C@@H]1O[C@H](CO)[C@@H](O)[C@H](O)[C@H]1O)[C@H]1CC[C@]2(C)[C@@H]1[C@H](O)C[C@@H]1[C@@]3(C)CC[C@H](O[C@@H]4O[C@H](CO)[C@@H](O)[C@H](O)[C@H]4O[C@@H]4O[C@H](CO)[C@@H](O)[C@H](O)[C@H]4O)C(C)(C)[C@@H]3CC[C@]12C
[reply] 10.24

In the following, a different molecule is considered.
[ask] Data request, read-out Re (%) Short term, for CC(C)=CCC[C@](C)(O[C@@H]1O[C@H](CO[C@@H]2O[C@H](CO)[C@@H](O)[C@H](O)[C@H]2O)[C@@H](O)[C@H](O)[C@H]1O)[C@H]1CC[C@]2(C)[C@@H]1[C@H](O)C[C@@H]1[C@@]3(C)CC[C@H](O[C@@H]4O[C@H](CO)[C@@H](O)[C@H](O)[C@H]4O[C@@H]4O[C@H](CO)[C@@H](O)[C@H](O)[C@H]4O)C(C)(C)[C@@H]3CC[C@]12C
[reply] 7.95
